experimental.parameters: 318.15 K, Ring tensiometer
metric.name: surface tension liquid-gas (mN/m)

A selection of reference data follows.
- compound: "CC(C)O [propan-2-ol]"
  readout.unit: "mN/m"
  surface tension liquid-gas: 19.53
- compound: "CO [methanol]"
  readout.unit: "mN/m"
  surface tension liquid-gas: 20.53

A: C[S+](C)[O-] [dimethyl sulfoxide]
B: CCO [ethanol]
INPUT: When their surface tension liquid-gas values are compared, which is larger, A or B ? Indicate which entry you chose by stating its label.
OUTPUT: A

----------
experimental.parameters: 328.15 K, Ring tensiometer
metric.name: surface tension liquid-gas (mN/m)

A selection of reference data follows.
- compound: "CCO"
  readout.unit: "mN/m"
  surface tension liquid-gas: 19.23
- compound: "CC(C)O"
  readout.unit: "mN/m"
  surface tension liquid-gas: 18.51

1: C[S+](C)[O-] [dimethyl sulfoxide]
2: CO
INPUT: When their surface tension liquid-gas values are compared, which is larger, 1 or 2 ? Indicate which entry you chose by stating its label.
OUTPUT: 1

----------
experimental.parameters: 308.15 K, Ring tensiometer
metric.name: surface tension liquid-gas (mN/m)

A selection of reference data follows.
- compound: "CCO [ethanol]"
  surface tension liquid-gas [mN/m]: 21.01
- compound: "CO [methanol]"
  surface tension liquid-gas [mN/m]: 21.41

a: CC(C)O [propan-2-ol]
b: C[S+](C)[O-] [dimethyl sulfoxide]
INPUT: Among a and b , whose measured surface tension liquid-gas is the smaller figure? Indicate which entry you chose by stating its label.
OUTPUT: a
(a: 20.29 mN/m, b: 41.3 mN/m)

----------
experimental.parameters: 298.15 K, Ring tensiometer
metric.name: surface tension liquid-gas (mN/m)

- molecule: "CCO"
  result.number: 21.66
- molecule: "CO"
  result.number: 22.24

I: C[S+](C)[O-] [dimethyl sulfoxide]
II: CC(C)O
III: O
INPUT: Please give the order of these molecules when sorted by surface tension liquid-gas, largest value leading. Provide the labels, sequenced as the question asks.
OUTPUT: III, I, II

Data provenance: the NIST ThermoML archive (doi:10.1016/j.jct.2016.06.004)
